System: E. faecalis ATCC 29212
Type: cell-based, Enterococcus faecalis
experimental-context: ATCC 29212, 20 h
Where a SMILES comes first, the peptide text is derived from it. [ ]: non-standard residue; d: D form. The star is where a group is joined. d(aIle) = CC[C@H](C)[C@@H](N)C(=O)O; dDab = NCC[C@@H](N)C(=O)O; Octanoyl = CCCCCCCC(=O)*; Dab = NCC[C@H](N)C(=O)O
Reported MIC values are given for each entry in this list.

Sample records with MIC:
>>> result("CCCCCCCC(=O)N[C@@H](C(=O)N[C@H](CCN)C(=O)NCC(=O)N[C@H](CO)C(=O)N[C@H](Cc1c[nH]c2ccccc12)C(=O)N[C@@H](CO)C(=O)N[C@@H](CCN)C(=O)N[C@H](CCN)C(=O)N[C@@H](Cc1c[nH]cn1)C(=O)N[C@@H](CCC(=O)O)C(=O)N[C@H](C(=O)N[C@@H](C(=O)N[C@@H](C)C(=O)O)[C@@H](C)CC)C(C)C)C(C)C [Oct-His9] (Octanoyl-[dV][dDab]G[dS][dW]S[Dab][dDab]HEV[d(aIle)]A-OH)")
">64 µg/mL"
>>> result("CCCCCCCC(=O)N[C@@H](C(=O)N[C@H](CCN)C(=O)NCC(=O)N[C@H](CO)C(=O)N[C@H](Cc1c[nH]c2ccccc12)C(=O)N[C@@H](CO)C(=O)N[C@@H](CCN)C(=O)N[C@H](CCN)C(=O)N[C@@H](CCN)C(=O)N[C@@H](CCC(=O)O)C(=O)N[C@H](C(=O)N[C@@H](C(=O)N[C@@H](C)C(=O)O)[C@@H](C)CC)C(C)C)C(C)C [Oct-Dab9] (Octanoyl-[dV][dDab]G[dS][dW]S[Dab][dDab][Dab]EV[d(aIle)]A-OH)")
">64 µg/mL"
>>> result("CCCCCCCC(=O)N[C@@H](C(=O)N[C@H](CCN)C(=O)NCC(=O)N[C@H](CO)C(=O)N[C@H](Cc1c[nH]c2ccccc12)C(=O)N[C@@H](CO)C(=O)N[C@@H](CCN)C(=O)N[C@H](CCN)C(=O)N[C@@H](Cc1ccc(O)cc1)C(=O)N[C@@H](CCC(=O)O)C(=O)N[C@H](C(=O)N[C@@H](C(=O)N[C@@H](C)C(=O)O)[C@@H](C)CC)C(C)C)C(C)C [Oct-Tyr9] (Octanoyl-[dV][dDab]G[dS][dW]S[Dab][dDab]YEV[d(aIle)]A-OH)")
"64 µg/mL"
>>> result("CCCCCCCC(=O)N[C@@H](C(=O)N[C@H](CCN)C(=O)NCC(=O)N[C@H](CO)C(=O)N[C@H](Cc1c[nH]c2ccccc12)C(=O)N[C@@H](CO)C(=O)N[C@@H](CCN)C(=O)N[C@H](CCN)C(=O)N[C@@H](CCC(=O)O)C(=O)N[C@@H](CCC(=O)O)C(=O)N[C@H](C(=O)N[C@@H](C(=O)N[C@@H](C)C(=O)O)[C@@H](C)CC)C(C)C)C(C)C [Oct-Glu9] (Octanoyl-[dV][dDab]G[dS][dW]S[Dab][dDab]EEV[d(aIle)]A-OH)")
">64 µg/mL"
>>> result("CCCCCCCC(=O)N[C@@H](C(=O)N[C@H](CCN)C(=O)NCC(=O)N[C@H](CO)C(=O)N[C@H](Cc1c[nH]c2ccccc12)C(=O)N[C@@H](CO)C(=O)N[C@@H](CCN)C(=O)N[C@H](CCN)C(=O)N[C@H](C(=O)N[C@@H](CCC(=O)O)C(=O)N[C@H](C(=O)N[C@@H](C(=O)N[C@@H](C)C(=O)O)[C@@H](C)CC)C(C)C)C(C)C)C(C)C [Oct-Val9] (Octanoyl-[dV][dDab]G[dS][dW]S[Dab][dDab]VEV[d(aIle)]A-OH)")
"64 µg/mL"

# ---- query molecule ----
Task: Under E. faecalis ATCC 29212: MIC value of CCCCCCCC(=O)N[C@@H](C(=O)N[C@H](CCN)C(=O)NCC(=O)N[C@H](CO)C(=O)N[C@H](Cc1c[nH]c2ccccc12)C(=O)N[C@@H](CO)C(=O)N[C@@H](CCN)C(=O)N[C@H](CCN)C(=O)NCC(=O)N[C@@H](CCC(=O)O)C(=O)N[C@H](C(=O)N[C@@H](C(=O)N[C@@H](C)C(=O)O)[C@@H](C)CC)C(C)C)C(C)C [Oct-Gly9] (Octanoyl-[dV][dDab]G[dS][dW]S[Dab][dDab]GEV[d(aIle)]A-OH) ?
Result: >64 µg/mL
